Where these numbers come from: patent US20260193366A1

Measured Relative Inhibition of IL-13 induced TF-1 Proliferation IC50 values are reported for all entries that follow.
Target: T1, hIL-4Rα on cells (human, UniProt P24394 26-825)
T1 sequence: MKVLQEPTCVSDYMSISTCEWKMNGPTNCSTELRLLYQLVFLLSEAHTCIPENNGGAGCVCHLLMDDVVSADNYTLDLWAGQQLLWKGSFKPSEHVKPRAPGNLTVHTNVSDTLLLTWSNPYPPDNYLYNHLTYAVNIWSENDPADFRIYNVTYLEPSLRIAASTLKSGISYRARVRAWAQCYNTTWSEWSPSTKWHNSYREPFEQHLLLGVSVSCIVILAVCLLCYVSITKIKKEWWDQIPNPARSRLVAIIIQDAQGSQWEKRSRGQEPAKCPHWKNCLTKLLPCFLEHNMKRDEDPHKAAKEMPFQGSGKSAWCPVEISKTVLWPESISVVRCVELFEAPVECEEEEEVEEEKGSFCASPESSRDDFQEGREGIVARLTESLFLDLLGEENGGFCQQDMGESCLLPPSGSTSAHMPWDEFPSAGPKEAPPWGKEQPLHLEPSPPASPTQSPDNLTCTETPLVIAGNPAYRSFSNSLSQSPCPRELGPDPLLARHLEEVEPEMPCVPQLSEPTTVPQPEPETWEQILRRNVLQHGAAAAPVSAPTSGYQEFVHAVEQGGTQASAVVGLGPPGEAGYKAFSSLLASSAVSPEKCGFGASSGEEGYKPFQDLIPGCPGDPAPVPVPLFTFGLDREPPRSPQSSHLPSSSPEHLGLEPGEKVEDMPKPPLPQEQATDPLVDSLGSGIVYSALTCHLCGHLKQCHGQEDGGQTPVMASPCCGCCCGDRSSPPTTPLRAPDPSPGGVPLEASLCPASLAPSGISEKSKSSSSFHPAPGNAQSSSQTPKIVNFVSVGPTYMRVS
Assay: cell-based or functional assay

>  <binder>
Construct 31 (mAb443) (antibody, IgG4, V domains shown, VH/VL only) VH: EVQLVESGGGLEQPGGSLRLSCAGSGFTFRDFAMTWVRQAPGKGLEWVSSISGSGGNIYYADSVKGRFTISRDNSKNTLYLQMNSLRAEDTAVYYCAKDRLSVTVRPRYYGLDVWGQGTTVTVSS VL: DIVMTQSPLSLPVTPGEPASISCRSSQSLLYSNGYNYLDWYLQKSGQSPQLLIYLGSNRASGVPDRFSGSGSGTDFTLKISRVEAEDVGFYYCMQALQAPYTFGQGTKLEIK

>  <result>
1.24 relative to dupilumab

$$$$
>  <binder>
Construct 30 (mAb439) (antibody, IgG4, V domains shown, VH/VL only) VH: EVQLVESGGGLEQPGGSLRLSCAGSGFTFRDYAMTWVRQAPGKGLEWVSSISGSGGNTYYADSVKGRFTISRDNSKNTLYLQMNSLRAEDTAVYYCAKDRLSITIRPRYYGLDVWGQGTTVTVSS VL: DIVMTQSPLSLPVTPGEPASISCRSSQSLLYSNRNNYLDWYLQKSGQSPQLLIYSASIRASGVPDRFSGSGSGTDFTLKISRVEAEDVGFYYCMQAFQAPYTFGQGTKLEIK

>  <result>
0.917 relative to dupilumab

$$$$
>  <binder>
Construct 26 (mAb434) (antibody, IgG4, V domains shown, VH/VL only) VH: EVQLVESGGGLEQPGGSLRLSCAGSGFTFRDFAMTWVRQAPGKGLEWVSSISGGGGSTYYADSVKGRFTISRDNSKNTLYLQMNSLRAEDTAVYYCAKDRLSIAVRPRYYGLDVWGQGTTVTVSS VL: DIVMTQSPLSLPVTPGEPASISCTASQSLLYSIGYNYVDWYLQKSGQSPQLLIYLGNKRASGVPDRFSGSGSGTDFTLKISRVEAEDVGFYYCMQSLTSPYTFGQGTKLEIK

>  <result>
0.83 relative to dupilumab

$$$$

Next binder, Relative Inhibition of IL-13 induced TF-1 Proliferation IC50 to be filled in.
Ask: Requested read-out: Relative Inhibition of IL-13 induced TF-1 Proliferation IC50. Entry: Construct 24 (mAb432) (antibody, IgG4, V domains shown, VH/VL only) VH: EVQLVESGGGLEQPGGSLRLSCAGSGFTFRDFAMTWVRQAPGKGLEWVSSISGSGGNIYYADSVKGRFTISRDNSKNTLYLQMNSLRAEDTAVYYCAKDRLSIAVRPRYYGLDVWGQGTTVTVSS VL: DIVMTQSPLSLPVTPGEPASISCTASQSLLYSIGKNYVDWYLQKSGQSPQLLIYLGNNRATGVPDRFSGSGSGTDFTLKISRVEAEDVGFYYCMQSLTSPYTFGQGTKLEIK
Reply: 0.693 relative to dupilumab
